# measurement_notes: Inactivation at pH 7.8 followed by 1H NMR
# Type: physicochemical
# measurement_parameters: sodium phosphate buffer; pH jump from pH 2 to pH 7.8, 1H NMR integrals fit to single exponential; read-out: half-life for the inactivation reaction
assay_endpoint: half-life (min)

(I) C[C@H](N)C(=S)N1CCC[C@H]1B(O)O [Ala-boroPro Thioxamide]
(II) C[C@H](N)C(=O)N1CCC[C@H]1B(O)O [Ala-boroPro, reference compound]
Lookup: Hi there, can you help? I need to know whether I or II has lower measured half-life. Identify your selection by its label.
Found: II

###

# study_target: DP9 (Homo sapiens (Human), UniProt Q86TI2)
# Sequence (Q86TI2 whole entry, species assumed, canonical isoform): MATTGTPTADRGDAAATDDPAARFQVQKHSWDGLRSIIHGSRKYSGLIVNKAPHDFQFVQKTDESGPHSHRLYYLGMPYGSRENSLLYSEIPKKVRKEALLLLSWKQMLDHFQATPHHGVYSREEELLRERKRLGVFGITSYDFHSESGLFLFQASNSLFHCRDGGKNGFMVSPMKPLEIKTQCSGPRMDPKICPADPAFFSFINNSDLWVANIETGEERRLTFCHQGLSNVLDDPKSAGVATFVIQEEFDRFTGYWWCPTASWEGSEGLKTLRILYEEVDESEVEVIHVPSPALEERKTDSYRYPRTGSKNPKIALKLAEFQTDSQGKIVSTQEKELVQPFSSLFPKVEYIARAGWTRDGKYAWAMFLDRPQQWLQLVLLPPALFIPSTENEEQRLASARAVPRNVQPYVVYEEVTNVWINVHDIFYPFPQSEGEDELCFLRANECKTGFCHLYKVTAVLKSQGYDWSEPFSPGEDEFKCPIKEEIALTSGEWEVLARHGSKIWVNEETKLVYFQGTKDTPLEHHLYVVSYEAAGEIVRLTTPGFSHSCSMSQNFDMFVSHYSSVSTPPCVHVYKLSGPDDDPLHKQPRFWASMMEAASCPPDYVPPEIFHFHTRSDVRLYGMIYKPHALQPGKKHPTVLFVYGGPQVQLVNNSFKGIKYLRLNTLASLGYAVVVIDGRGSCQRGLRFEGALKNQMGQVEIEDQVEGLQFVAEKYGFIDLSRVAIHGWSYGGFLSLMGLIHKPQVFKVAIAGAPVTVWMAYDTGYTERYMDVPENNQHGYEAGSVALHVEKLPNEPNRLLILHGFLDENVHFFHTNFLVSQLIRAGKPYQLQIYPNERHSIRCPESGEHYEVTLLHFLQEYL
# measurement_notes: Selectivity for dipeptidyl peptidase isoforms, DP9
# Type: biochemical
# measurement_parameters: pH 7.8; read-out: IC50s DP9 pH 7.8
assay_endpoint: IC50 (nM)

(P) OB(O)[C@@H]1CCCN1C(=S)[C@@H]1CCCN1 [Pro-boroPro Thioxamide]
(Q) N[C@@H](CCC(=O)O)C(=S)N1CCC[C@H]1B(O)O [Glu-boroPro Thioxamide]
Lookup: Between the entries labelled P and Q , which has a larger IC50 value on record? Your choice should be expressed through its label.
Found: Q

###

# study_target: DP-IV (Sus scrofa (Pig))
# measurement_notes: DPP IV inhibition: thioxamide v. oxoamide
# Format: biochemical, porcine
# measurement_parameters: pH 8.0; read-out: IC50 (pH 8.0)
assay_endpoint: IC50 (µM)

compound | unit_of_measure | result_number
N[C@@H](CCCC(=O)O)C(=S)N1CCC[C@H]1B(O)O [Aad-boroPro Thioxamide] | µM | 19

(1) NCC(=O)N1CCC[C@H]1B(O)O [Gly-boroPro, reference compound]
(2) O=C([C@@H]1CCCN1)N1CCC[C@H]1B(O)O [Pro-boroPro, reference compound]
Lookup: Please let me know which one, 1 or 2 , has a lower measured IC50 value. Write the label of whichever entry you select.
Found: 1
(1: 7 µM, 2: 23 µM)

###

# study_target: DP-IV (Sus scrofa (Pig), UniProt P22411)
# Sequence (P22411 whole entry): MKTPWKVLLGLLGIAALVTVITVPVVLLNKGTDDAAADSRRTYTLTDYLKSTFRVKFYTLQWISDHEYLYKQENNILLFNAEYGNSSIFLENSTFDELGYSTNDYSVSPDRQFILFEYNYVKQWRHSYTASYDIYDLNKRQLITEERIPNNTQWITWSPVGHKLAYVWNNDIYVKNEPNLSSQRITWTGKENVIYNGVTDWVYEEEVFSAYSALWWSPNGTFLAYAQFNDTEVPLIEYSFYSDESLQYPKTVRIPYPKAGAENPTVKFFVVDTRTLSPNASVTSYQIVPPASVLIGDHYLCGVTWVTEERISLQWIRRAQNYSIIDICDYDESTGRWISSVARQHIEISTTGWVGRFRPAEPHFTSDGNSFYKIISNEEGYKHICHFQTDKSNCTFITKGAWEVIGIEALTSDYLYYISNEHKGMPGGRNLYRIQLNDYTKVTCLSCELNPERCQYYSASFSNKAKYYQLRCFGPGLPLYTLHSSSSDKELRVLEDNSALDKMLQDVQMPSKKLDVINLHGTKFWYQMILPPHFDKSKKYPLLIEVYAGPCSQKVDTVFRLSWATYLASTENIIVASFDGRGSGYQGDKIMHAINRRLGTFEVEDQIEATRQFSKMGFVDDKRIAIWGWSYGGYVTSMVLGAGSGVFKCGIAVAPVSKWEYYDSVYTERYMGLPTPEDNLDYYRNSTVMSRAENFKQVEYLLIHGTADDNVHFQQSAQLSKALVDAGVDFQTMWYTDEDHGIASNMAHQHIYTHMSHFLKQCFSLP
# measurement_notes: DPP IV inhibition: thioxamide v. oxoamide
# Assay type: biochemical, porcine
# measurement_parameters: pH 8.0; read-out: IC50 (pH 8.0)
pIC50: −log10 of the molar value.
assay_endpoint: pIC50

(a) N[C@@H](CC(=O)O)C(=S)N1CCC[C@H]1B(O)O [Asp-boroPro Thioxamide]
(b) N[C@@H](CCC(=O)O)C(=O)N1CCC[C@H]1B(O)O [Glu-boroPro, reference compound]
(c) CC(C)[C@H](N)C(=S)N[C@@H](C)B(O)O [Val-boroAla Thioxamide]
Lookup: Kindly order the items shown according to pIC50, from the highest value down. As an answer, provide the labels arranged in the order called for.
Found: c, b, a

###

# study_target: DP-IV (Sus scrofa (Pig))
# measurement_notes: DPP IV inhibition: thioxamide v. oxoamide
# Assay type: biochemical, porcine
# measurement_parameters: pH 2.0; read-out: IC50 (pH 2.0)
assay_endpoint: IC50 (nM)

The following molecules have reported results that may help.
molecule | unit_of_measure | result_number
N[C@@H](CC(=O)O)C(=S)N1CCC[C@H]1B(O)O [Asp-boroPro Thioxamide] | nM | 17
N[C@@H](CCCC(=O)O)C(=S)N1CCC[C@H]1B(O)O [Aad-boroPro Thioxamide] | nM | 1.6

(a) O=C(CNCc1ccccc1)N1CCC[C@H]1B(O)O [N-(Benzyl)-Gly-boroPro, reference compound]
(b) NCC(=O)N1CCC[C@H]1B(O)O [Gly-boroPro, reference compound]
(c) CC(C)[C@H](N)C(=S)N[C@@H](C)B(O)O [Val-boroAla Thioxamide]
(d) N[C@@H](Cc1c[nH]c2ccccc12)C(=O)N1CCC[C@H]1B(O)O [Trp-boroPro, reference compound]
(e) N[C@@H](CCCC(=O)O)C(=O)N1CCC[C@H]1B(O)O [Aad-boroPro, reference compound]
Lookup: # sort list by recorded IC50, greatest to least Write the labels, ordered according to the request.
Found: c, a, e, d, b

###

# study_target: DP-IV (Sus scrofa (Pig), UniProt P22411)
# measurement_notes: DPP IV inhibition: thioxamide v. oxoamide
# Assay type: biochemical, porcine
# measurement_parameters: IC50 pH 8.0 to pH 2.0
assay_endpoint: Inactivation Index

Reference set (8 entries):
molecule | study_target | assay_endpoint | result
NCC(=O)N1CCC[C@H]1B(O)O [Gly-boroPro, reference compound] | DP-IV (Sus scrofa (Pig), UniProt P22411) | Inactivation Index | 7,000
N[C@@H](CCC(=O)O)C(=O)N1CCC[C@H]1B(O)O [Glu-boroPro, reference compound] | DP-IV (Sus scrofa (Pig), UniProt P22411) | Inactivation Index | 500
N[C@@H](CC(=O)O)C(=S)N1CCC[C@H]1B(O)O [Asp-boroPro Thioxamide] | DP-IV (Sus scrofa (Pig), UniProt P22411) | Inactivation Index | 1,700
O=C([C@@H]1CCCN1)N1CCC[C@H]1B(O)O [Pro-boroPro, reference compound] | DP-IV (Sus scrofa (Pig), UniProt P22411) | Inactivation Index | 21,000
N=C(N)NCCC[C@H](N)C(=O)N1CCC[C@H]1B(O)O [Arg-boroPro, reference compound] | DP-IV (Sus scrofa (Pig), UniProt P22411) | Inactivation Index | 3,900
N[C@@H](CCCC(=O)O)C(=S)N1CCC[C@H]1B(O)O [Aad-boroPro Thioxamide] | DP-IV (Sus scrofa (Pig), UniProt P22411) | Inactivation Index | 12,000
N[C@@H](Cc1c[nH]c2ccccc12)C(=S)N1CCC[C@H]1B(O)O [Trp-boroPro Thioxamide] | DP-IV (Sus scrofa (Pig), UniProt P22411) | Inactivation Index | 440
OB(O)[C@@H]1CCCN1C(=S)[C@@H]1CCCN1 [Pro-boroPro Thioxamide] | DP-IV (Sus scrofa (Pig), UniProt P22411) | Inactivation Index | 1,100

Short answer for N[C@@H](CCCC(=O)O)C(=O)N1CCC[C@H]1B(O)O [Aad-boroPro, reference compound] : Inactivation Index was 1,600

So, O=C(CNCc1ccccc1)N1CCC[C@H]1B(O)O [N-(Benzyl)-Gly-boroPro, reference compound] ? Its Inactivation Index was 7,300

Record summary for N[C@H](C(=S)N1CCC[C@H]1B(O)O)C1CCCCC1 [Chg-boroPro Thioxamide] : reported Inactivation Index = 2,300

###

# study_target: DP-IV (Sus scrofa (Pig), UniProt P22411)
# measurement_notes: DPP IV inhibition: thioxamide v. oxoamide
# Format: biochemical, porcine
# measurement_parameters: pH 2.0; read-out: IC50 (pH 2.0)
assay_endpoint: IC50 (nM)

The cases that follow already have their IC50 on record.
compound | result_number
OB(O)[C@@H]1CCCN1C(=S)[C@@H]1CCCN1 [Pro-boroPro Thioxamide] | 6.4
N[C@@H](Cc1c[nH]c2ccccc12)C(=S)N1CCC[C@H]1B(O)O [Trp-boroPro Thioxamide] | 1.6

(P) N=C(N)NCCC[C@H](N)C(=S)N1CCC[C@H]1B(O)O [Arg-boroPro Thioxamide]
(Q) N[C@@H](CCC(=O)O)C(=O)N1CCC[C@H]1B(O)O [Glu-boroPro, reference compound]
(R) N[C@H](C(=S)N1CCC[C@H]1B(O)O)C1CCCCC1 [Chg-boroPro Thioxamide]
(S) C[C@H](NC(=S)[C@H](C)N)B(O)O [Ala-boroAla Thioxamide]
(T) OB(O)[C@@H]1CCCN1C(=S)CNCc1ccccc1 [N-(Benzyl)-Gly-boroPro Thioxamide]
Lookup: Place the items in sequence of falling IC50. // respond by listing labels in the order requested
Found: S, T, Q, R, P
